Data provenance is paper PMC9090415.

# subject-of-test: P. falciparum apicoplast DNA polymerase (Pf-apPOL) (Plasmodium falciparum, UniProt Q8ILY1)
# Sequence (Q8ILY1 entry or part of it): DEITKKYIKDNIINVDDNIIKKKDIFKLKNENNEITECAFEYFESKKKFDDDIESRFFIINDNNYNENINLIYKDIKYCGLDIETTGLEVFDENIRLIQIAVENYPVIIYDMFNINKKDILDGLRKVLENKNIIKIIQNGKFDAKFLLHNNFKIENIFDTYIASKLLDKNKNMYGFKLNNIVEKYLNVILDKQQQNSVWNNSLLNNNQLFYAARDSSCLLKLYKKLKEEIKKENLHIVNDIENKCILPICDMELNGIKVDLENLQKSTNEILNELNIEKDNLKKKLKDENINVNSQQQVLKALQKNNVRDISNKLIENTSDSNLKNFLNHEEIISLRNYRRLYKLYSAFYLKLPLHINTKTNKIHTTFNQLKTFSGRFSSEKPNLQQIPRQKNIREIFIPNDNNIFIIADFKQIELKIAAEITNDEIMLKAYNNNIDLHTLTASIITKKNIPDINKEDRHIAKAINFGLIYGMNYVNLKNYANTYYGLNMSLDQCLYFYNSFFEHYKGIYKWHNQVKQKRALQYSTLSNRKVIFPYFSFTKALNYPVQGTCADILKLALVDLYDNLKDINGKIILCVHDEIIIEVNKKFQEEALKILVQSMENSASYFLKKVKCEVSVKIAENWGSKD
# assay-procedure: Fluorescence-based high-throughput DNA polymerase assay (molecular beacon), primary screen and dose-response
# Assay type: biochemical
# condition-info: DRC-2; 5'; concentration 20
endpoint-label: % inhibition Apo pol 5'

In [3]: df
Out[3]:
                                   compound           endpoint_label  readout_value
0  CCOC(=O)C1=C2c3cc(OC)c(OC)cc3CC(C)(C)N2C(=O)C1=O  % inhibition Apo pol 5'            26%
1   COc1ccc(/C=C/c2cc(C(=O)O)c3ccccc3n2)cc1  % inhibition Apo pol 5'            38%
2  O=C(Cn1ccc2c(=O)[nH]ccc21)Nc1cc(F)ccc1F [Molecule 42, O=C(Cn1ccc2c1cc[nH]c2=O)Nc1cc(F)ccc1F]  % inhibition Apo pol 5'            40%
3  COCCN(CCOC)Cc1c(O)ccc2c1OC(=Cc1cc(Br)ccc1OC)C2=O  % inhibition Apo pol 5'            48%
4  Cc1ccc(N2NC(=O)/C(=C\c3ccc(O)c([N+](=O)[O-])c3)C2=O)cc1Cl  % inhibition Apo pol 5'            44%
5  COc1ccc(S(=O)(=O)/N=C2\NC(=O)/C(=C3\C(=O)Nc4ccc([N+](=O)[O-])cc43)S2)cc1  % inhibition Apo pol 5'            52%
6  Cn1nc(C(=O)N2CCc3c(nc4cc(-c5ccccc5)[nH]n4c3=O)C2)c2ccccc21  % inhibition Apo pol 5'            45%
